system: oral squamous cell carcinoma (SAS); assay: In vitro anticancer assay (MTT), SAS; format: cell-based; details: SAS cells, 48 hrs, mean ± spread, read-out: Anti-proliferative evaluation IC50, SAS
// IC50 lookup, one value per entry

COc1ccc2c(c1)C(=O)c1c-2c(N2CCN(C(=O)CNCCCN(C)C)CC2)nc2ccccc12
> 30 µM
COc1ccc2c(c1)C(=O)c1c-2c(N2CCN(C(=O)CNCCNCCN)CC2)nc2ccccc12
> 30 µM

query: Given COc1ccc2c(c1)C(=O)c1c-2c(N2CCN(CC3CO3)CC2)nc2ccccc12 (stereo not drawn) , respond with its IC50.
result: > 30 µM

----------
test system: oral squamous cell carcinoma (SAS); test: In vitro anticancer assay (MTT), SAS; type: cell-based; details: SAS cells, 48 hrs, mean ± spread, read-out: Anti-proliferative evaluation IC50, SAS
pIC50: −log10 of the molar value.
Measured endpoint: pIC50

Below: 5 compounds and their reported pIC50.
CON=C1c2cc(OC)ccc2-c2c(N3CCN(C(=O)CCN(C)C)CC3)nc3ccccc3c21
5.15
CNCC(=O)N1CCN(c2nc3ccccc3c3c2-c2ccc(OC)cc2C3=O)CC1
5.13
COc1ccc2c(c1)C(=O)c1c-2c(N2CCC(N)CC2)nc2ccccc12
5.08
COc1ccc2c(c1)C(=O)c1c-2c(N2CCN(CC(O)CN(C)C)CC2)nc2ccccc12 (centres unmarked)
5.16
COc1ccc2c(c1)C(=O)c1c-2c(N2CCNCC2)nc2ccc(F)cc12
5.16

(1) COc1ccc2c(c1)C(=O)c1c-2c(N2CCN(C(=O)CNCCO)CC2)nc2ccccc12
(2) COc1ccc2c(c1)C(=NOCCCN)c1c-2c(N2CCNCC2)nc2ccccc12
(3) COc1ccc2c(c1)C(=NOCCN1CCCC1)c1c-2cnc2ccccc12
(4) COc1ccc2c(c1)C(=NOCCN1CCCC1)c1c-2c(N2CCNCC2)nc2ccccc12
query: Endpoint returns the given compounds ordered by ascending pIC50. Lab note: final answer is the ordered label list.
result: 1, 2, 4, 3

----------
tested on: hepatocellular carcinoma (SKHep1); experiment: In vitro anticancer assay (MTT), SKHep1; format: cell-based; settings: Homo sapiens, SK-HEP1, SKHep1 cells, 48 hrs, mean ± spread, read-out: Anti-proliferative evaluation IC50, SKHep1
pIC50: −log10 of the molar value.
Measured endpoint: pIC50

COc1ccc2c(c1)C(=NOCCN1CCCC1)c1c-2c(N2CCNCC2)nc2ccccc12
6.15

(1) COc1ccc2c(c1)C(=NOCCN1CCCC1)c1c-2c(O)nc2ccccc12
(2) COc1ccc2c(c1)C(=NOCCN(C)C)c1c-2c(N2CCNCC2)nc2ccccc12
query: Just curious, which one has the larger pIC50 reading, 1 or 2 ? Provide the label of your selected option as the answer.
result: 2
(2: 6.15, 1: 5.92)

----------
test system: esophageal carcinoma (CE81T); test: In vitro anticancer assay (MTT), CE81T; format: cell-based; details: CE81T cells, 48 hrs, mean ± spread, read-out: Anti-proliferative evaluation IC50, CE81T
Recorded measurements of IC50, one per entry

Worked cases, IC50 given:
COc1ccc2c(c1)C(=O)c1c-2c(N2CCN(C(=O)CNCCNCCN)CC2)nc2ccccc12
> 30 µM
COc1ccc2c(c1OC)C(=O)c1c-2c(N2CCNCC2)nc2ccc(Cl)cc12
> 30 µM
COc1ccc2c(c1)C(=NOCCCN(C)C)c1c-2c(N2CCNCC2)nc2ccccc12
> 30 µM

query: Answer with the recorded IC50 for the compound listed here: COc1ccc2c(c1)C(=O)c1c-2c(N2CCN(C(=O)CN3CCOCC3)CC2)nc2ccccc12
result: > 30 µM

query: Using the record for CON=C1c2cc(OC)ccc2-c2c(N3CCN(C(=O)CCNCCN(C)C)CC3)nc3ccccc3c21 , state its measured IC50.
result: 4.8 µM

query: Return IC50 for the following compound: COc1ccc2c(c1)C(=O)c1c-2c(N2CCN(C(=O)CCN3CCOCC3)CC2)nc2ccccc12
result: > 30 µM

----------
system: oral squamous cell carcinoma (SAS); test: In vitro anticancer assay (MTT), SAS; type: cell-based; settings: SAS cells, 48 hrs, mean ± spread, read-out: Anti-proliferative evaluation IC50, SAS
pIC50: −log10 of the molar value.
Measured endpoint: pIC50

COc1ccc2c(c1)C(=O)c1c-2c(N2CCN(C(=O)CCNCCCN(C)CCCN)CC2)nc2ccccc12
< 4.52
COc1ccc2c(c1)C(=O)c1c-2c(N2CCN(C(=O)CCN3CCOCC3)CC2)nc2ccccc12
< 4.52
COc1ccc2c(c1)C(=O)c1c-2c(N2CCN(C(=O)CCNCCN)CC2)nc2ccccc12
< 4.52
COc1ccc2c(c1)C(=O)c1c-2c(N2CCN(C(=O)CN(C)C)CC2)nc2ccccc12
< 4.52
COc1ccc2c(c1)C(=O)c1c-2c(N2CCN(C(=O)CCNCCNCCN)CC2)nc2ccccc12
< 4.52

query: Look up pIC50 of COc1ccc2c(c1)C(=O)c1c-2c(N2CCN(C(=O)CN3CCOCC3)CC2)nc2ccccc12 and report it.
result: < 4.52

query: State its pIC50 for this compound: CON=C1c2cc(F)ccc2-c2c(N3CCNCC3)nc3ccccc3c21
result: 5.10

query: Give the reported pIC50 for this compound. CON=C1c2cc(OC)ccc2-c2c(N3CCNCC3)nc3ccccc3c21
result: 4.99

Data credit: patent US7829567B2
